Reported fold change in binding strength compared to HuMAB2 is given for each of the following binders.
study_target: T1, human GDF15 (hGDF15), mature, wild-type (human, UniProt Q99988 197-308)
T1 construct: Bought recombinant protein: R&D Systems 957-GD-025/CF in most assays, 9279-GD in the crystal and the GDF15/GFRAL/RET assay; It was biotinylated in the GFRAL assay; also called hGDF15 (WT); rhGDF15
T1 sequence: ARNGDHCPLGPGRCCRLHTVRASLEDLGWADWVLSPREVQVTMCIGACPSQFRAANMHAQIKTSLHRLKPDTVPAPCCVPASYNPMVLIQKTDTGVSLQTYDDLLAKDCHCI
measurement_description: ELISA, hGDF15 immobilised; binding at 5 ng/mL antibody, HuMAB2 = 100

# binder, value_measured
records = [
    ("H48S-L7 (antibody, human IgG1, kappa, V domains shown, Tested as culture supernatant; also called HuMAB2 variant H48S) VH: QVQLQESGPGLVKPSETLSLTCTVSGFSISSDCYWIWIRQPPGKGLEYIGYTFYSGITYYNPSLASRTTISRDTSKNQFSLKLSSVTAADTAVYYCARDCDYAMDYWGQGTLVTVSS VL: DIQMTQSPSSLSASVGDRVTITCRASQDISNYLNWYQQKPGKAVKLLIHYTSTLHSGVPSRFSGSGSGTDYTLTISSLQPEDFATYFCQQGNTLPWTFGQGTKLEIKR", "~1.5 fold"),
]

Next, consider the following binder.
Query: Give me measured fold change in binding strength compared to HuMAB2, please, for this binder: H83R-L7 (antibody, human IgG1, kappa, V domains shown, In the label, H means the H chain; Tested as culture supernatant; also called HuMAB2 variant H83R) VH: QVQLQESGPGLVKPSETLSLTCTVSGFSINSDCYWIWIRQPPGKGLEYIGYTFYSGITYYNPSLRSRTTISRDTSKNQFSLKLSSVTAADTAVYYCARDCDYAMDYWGQGTLVTVSS VL: DIQMTQSPSSLSASVGDRVTITCRASQDISNYLNWYQQKPGKAVKLLIHYTSTLHSGVPSRFSGSGSGTDYTLTISSLQPEDFATYFCQQGNTLPWTFGQGTKLEIKR
Reply: ~1.5 fold
